Test system: Proteus vulgaris
Assay: MIC against Gram-negative bacteria: Proteus vulgaris
Type: cell-based
Details: 96-well plate, 5×10^5 CFU/mL, 37° C., 10 h
MEASURE_NAME: MIC against P. vulgaris (µg/mL)
All answers are understood in µg/mL, so give the number only.

>  <SUBSTANCE>
PRT512 (CACPLISSSNNFSPSCVAEGLDDYRCTACPRGYEGQYCERCAPGYTGSPGNPGGSCQE; listed as Homo sapiens)

>  <MIC against P. vulgaris / µg/mL>
25

$$$$
>  <SUBSTANCE>
PRT458 (ECSRLCRNGYCTPTGKCCCSPGWEGDFC; listed as Homo sapiens)

>  <MIC against P. vulgaris / µg/mL>
25

$$$$
>  <SUBSTANCE>
PRT530 (CSCDPEHADGCEQGSGRCHCKPNFHGDNCEKCAIGYYNFPFCLR; listed as Homo sapiens)

>  <MIC against P. vulgaris / µg/mL>
12.5

$$$$
>  <SUBSTANCE>
PRT485 (QADPCKFLACGEFAQCVKNERTEEAECRCKPGYDSQGSL; listed as Homo sapiens)

>  <MIC against P. vulgaris / µg/mL>
25

$$$$
>  <SUBSTANCE>
PRT506 (CNCSVAGSVSDGCTDEGQCHCVPGVAGKRCDRCAHGFYAYQDGSCTP; listed as Homo sapiens)

>  <MIC against P. vulgaris / µg/mL>
12.5

$$$$
>  <SUBSTANCE>
PRT483 (DCRAVYDRYSDDFCSGHGQCNCGRCDCKAGWYGKKCE; listed as Homo sapiens)

>  <MIC against P. vulgaris / µg/mL>
25

$$$$

We now examine a further substance.
MIC against P. vulgaris for PRT562 (CQCHNNIDTTDPEACDKETGRCLKCLYHTEGEHCQFCRFGYYGDALQQDCRK; listed as Homo sapiens) ?
25

The values you see were collected from patent US9833497B2.
